The origin of these recorded values is patent US20240199546A1.

- ASSAYED_SYSTEM: human SLC6A19 and TMEM27 (Homo sapiens)
- Construct: expressed in transfected cells
- Sequence (Q695T7 1-634): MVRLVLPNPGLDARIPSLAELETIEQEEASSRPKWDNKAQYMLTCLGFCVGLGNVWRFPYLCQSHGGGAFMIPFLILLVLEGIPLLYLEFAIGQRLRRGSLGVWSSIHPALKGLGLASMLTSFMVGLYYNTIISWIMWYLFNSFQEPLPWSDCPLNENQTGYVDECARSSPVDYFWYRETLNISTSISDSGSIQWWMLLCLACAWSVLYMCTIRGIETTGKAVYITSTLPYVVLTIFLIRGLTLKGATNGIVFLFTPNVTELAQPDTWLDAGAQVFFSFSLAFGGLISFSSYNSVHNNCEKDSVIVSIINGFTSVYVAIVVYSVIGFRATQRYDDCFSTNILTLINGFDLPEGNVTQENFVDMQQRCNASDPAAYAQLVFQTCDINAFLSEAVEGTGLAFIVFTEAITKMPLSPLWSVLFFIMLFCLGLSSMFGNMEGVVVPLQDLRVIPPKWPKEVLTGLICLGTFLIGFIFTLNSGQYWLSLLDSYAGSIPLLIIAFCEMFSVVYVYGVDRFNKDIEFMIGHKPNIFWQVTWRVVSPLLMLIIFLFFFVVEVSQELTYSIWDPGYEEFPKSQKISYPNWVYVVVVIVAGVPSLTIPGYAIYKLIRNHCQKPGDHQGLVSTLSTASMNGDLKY
- Sequence (Q9HBJ8 15-222 partner): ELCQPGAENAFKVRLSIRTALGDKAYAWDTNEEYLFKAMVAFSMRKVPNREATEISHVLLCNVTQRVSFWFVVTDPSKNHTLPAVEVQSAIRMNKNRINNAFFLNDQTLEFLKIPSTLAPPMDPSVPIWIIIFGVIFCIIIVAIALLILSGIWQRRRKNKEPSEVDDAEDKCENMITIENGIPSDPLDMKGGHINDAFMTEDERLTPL
- METHOD_DESCRIPTION: Radiolabelled (3H) leucine uptake in CHO cells with doxycycline-inducible expression of human SLC6A19 and TMEM27 (Example B-1)
- Assay type: cell-based
- MEASUREMENT_SETUP: CHO cells with doxycycline-inducible expression of human SLC6A19 and TMEM27, read-out: SLC6A19_Radioligand Uptake Assay IC50
- Method: The flasks were then incubated (humidified, 37° C. with 5% CO2) for 2 minutes. After incubation, 10 mL of pre-warmed cell culture media was added to each flask. The cell suspension was collected and centrifuged for 5 minutes at 200×g. […] The resuspended cells were counted using the Countess Cell Counting Chamber (Invitrogen) and the cell concentration of the suspension was readjusted to 1 million live cells/mL using pre-warmed cell culture media. […]
Quick list: IC50 per entry.
MEASURED_PROPERTY: IC50 (nM)

• CC(=O)NCc1cc2cc(Cl)c(OC[C@H]3CCOC3)cc2[nH]1 = 1350
• Cc1cc(COc2cc3[nH]c(CNC(=O)C4(C)CC4)cc3cc2C(F)F)no1 = 680
• CC(=O)C(=O)NCc1cc2cc(Cl)c(OCc3cc(C)no3)cc2[nH]1 = 455
• Cc1cc(CCc2cc3[nH]c(CNC(=O)C4(C)CC4)cc3cc2F)no1 = 220
• CC1(C(=O)NCc2cc3cc(Cl)c(OCc4cc(F)ccn4)cc3[nH]2)CC1 = 902
